# Tested On: T1, Cynomolgus CD3εδ Fc heterodimer (Cy CD3ε Fc / CD3δ Fc-HIS) (cynomolgus, UniProt Q95LI8 22-100)
# T1 chain 1: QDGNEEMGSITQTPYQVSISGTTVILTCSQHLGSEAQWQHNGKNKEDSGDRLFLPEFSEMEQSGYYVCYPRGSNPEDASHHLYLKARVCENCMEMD
# T1 chain 2: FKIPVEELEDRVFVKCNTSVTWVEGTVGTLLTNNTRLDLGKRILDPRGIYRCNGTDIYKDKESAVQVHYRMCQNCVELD
# Measurement Description: BLI (Octet), IgG on AHC sensor, pH 7.4
Property Label: koff (s⁻¹)
Expressed in s⁻¹, but write only the number.

input: Could you share which koff value was measured for SAD10319_P04_G10 (ADI-57334) (antibody, V domains shown, IgG; also called Ab32) VH: QVQLVQSGAEVKKPGASVKVSCKASGYTFTDYYMHWVRQAPGQRLEWMGWINPATGATAYSQKFQGRVTITRDTSASTAYMELSSLRSEDTAVYYCARDAYGHHFYDVWGQGTLVTVSS VL: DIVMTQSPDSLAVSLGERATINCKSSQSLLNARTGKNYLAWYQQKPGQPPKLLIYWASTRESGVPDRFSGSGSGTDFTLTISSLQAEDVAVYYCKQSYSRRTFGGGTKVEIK ?
output: 0.0182

input: Could you share which koff value was measured for SAD10320_P01_E02 (ADI-57349) (antibody, V domains shown, IgG; also called Ab55) VH: QVQLVQSGAEVKKPGASVKVSCKASGFNIKDYYMHWVRQAPGQRLAWMGWIDLENANTIYDAKFQGRVTITRDTSASTAYMELSSLRSEDTAVYYCARDAYGRHFYDVWGQGTLVTVSS VL: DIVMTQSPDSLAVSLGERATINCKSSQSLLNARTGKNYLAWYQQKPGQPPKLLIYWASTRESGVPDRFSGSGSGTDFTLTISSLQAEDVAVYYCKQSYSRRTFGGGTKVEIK ?
output: 0.0208

input: Quick one: koff for SAD10319_P02_E04 (ADI-57311) (antibody, V domains shown, IgG; also called Ab252) VH: QVQLVQSGAEVKKPGASVKVSCKASGYTFESYYMHWVRQAPGQRLERMGSIVAGTGATKYSQKFQGRVTITRDTSASTAYMELSSLRSEDTAVYYCARDHYGRYFYDVWGQGTPVTVSS VL: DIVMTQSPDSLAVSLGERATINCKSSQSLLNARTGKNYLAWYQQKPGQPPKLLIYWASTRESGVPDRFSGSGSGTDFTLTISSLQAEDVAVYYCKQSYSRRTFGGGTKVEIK ?
output: 0.0208

These data points were gathered from patent US20220380463A1.
